assayInfo: NCI Yeast Anticancer Drug Screen. Data for the mlh1 rad18 strain (AID 175)
conditions: S. cerevisiae mlh1 rad18 strain growth inhibition; at 50.0 µM (retest, dose inferred, filed as 5.0); stronger effect = higher value
Compounds without any hit were thinned out: in the full panel of roughly 79,000, 15% have a hit.
Criterion: growth inhibition meeting or surpassing 10%. Met: y. Not met: n.

Use these answered entries as a reference point.
compound	classLabel
O=C(Cl)c1ccccn1	y
CC(Cl)CNC(C)C (stereo not given)	n
COc1cc(/C=C/c2ccc(OC)c(OC)c2)cc(OC)c1	y

q: # check: growth inhibition of `CCCCCCCCCCCCN1CC1` is greater than or equal to 10%
a: n

q: Same question, `CC(C)(C)CC(C)(C)c1ccc(O)cc1` this time
a: y

q: Same question, C=C(C)C(=O)OC1CCC2(C)C(CCC3C2CCC2(C)C(c4ccc(=O)oc4)CC4OC432)C1 (stereo not given) this time
a: y

q: Same question, `CN1C(=O)CC[C@@]2(C)C1=CC[C@H]1[C@@H]3CC[C@H](O)[C@@]3(C)CC[C@@H]12` this time
a: y

q: Same question, `CC(=O)Nc1ccc(/C=N/N=C(/N)N[N+](=O)[O-])cc1` this time
a: n

q: Same question, `O=[C-]CCCCCC[C-]=O.[C-]#[O+].[C-]#[O+].[C-]#[O+].[C-]#[O+].[Fe+6].[Fe+6].[c-]1[c-][c-][cH-][c-]1.[c-]1[c-][c-][cH-][c-]1` this time
a: y

q: Same question, `CCC[CH2][Sn]1([CH2]CCC)[S]CC[N]1S(=O)(=O)c1ccc(C)cc1` this time
a: y

* * *

Provide the reported growth inhibition of each item.
assayInfo: NCI Yeast Anticancer Drug Screen. Data for the sgs1 mgt1 strain (AID 161);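 further: 0% = growth of cultures given vehicle only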
conditions: S. cerevisiae sgs1 mgt1 strain, at 50.0 µM (retest, dose inferred, filed as 5.0), stronger effect = higher value
The panel holds about 79,000 compounds, 15% with a hit somewhere; the sample as a whole holds those more often.
Give bare numbers, in %.

compound	growth inhibition, %
O=[N+]([O-])c1ccc(N2CCC(CCCC3CCN(c4ccc([N+](=O)[O-])cc4[N+](=O)[O-])CC3)CC2)c([N+](=O)[O-])c1	51
CC1CN=C(Nc2ccccc2)S1 (stereo not given)	6
O=c1oc2ccccc2c(O)c1C(c1ccc(OCc2ccccc2)cc1)c1c(O)c2ccccc2oc1=O	92
O=P(Nc1cccc(Cl)c1)(Oc1ccccc1)N(CCCl)CCCl (stereo not given)	43
c1cc[c]([Sn]([c]2ccccc2)([c]2ccccc2)[CH]2CCCCC2)cc1	93
CC[N-]c1nnnn1CC.[Au+].c1ccc([PH+](c2ccccc2)c2ccccc2)cc1	98
O=[N+]([O-])c1cc([N+](=O)[O-])c2cccnc2c1O	11
O=[N+]([O-])c1cc(C(F)(F)F)cc2n[se]nc12	100
CCC1(O)C(=O)OCc2c1cc1n(c2=O)Cc2cc3ccc(C#N)cc3nc2-1 (stereo not given)	-132

Proceed to the following item.
q: Need growth inhibition of `CCOP(=O)(OCC)/C(C#N)=C/c1cccc(Br)c1` , thanks.
a: 94

* * *

assayInfo: NCI Yeast Anticancer Drug Screen. Data for the sgs1 mgt1 strain (AID 161);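 further: 0% = growth of cultures given vehicle only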
conditions: S. cerevisiae sgs1 mgt1 strain, at 5.0 µM (retest, dose inferred, filed as 0.5), stronger effect = higher value
This is part of a sample that, as a whole, favours compounds with a hit. Of some 79,000 tested, about 15% had one in any assay.
measuredEndpoint: growth inhibition (%)
One number for each entry, in %.

compound	measuredEndpoint	value
CC[C@@]1(O)C[C@H](OC2CC(N)C(O)C(C)O2)c2c(O)c3c(c(O)c2[C@H]1C(=O)OC)C(=O)c1cccc(O)c1C3=O (stereo not given in full)	growth inhibition	48
O=C1c2ccccc2C(=O)C(Cl)C1Cl (stereo not given)	growth inhibition	33
[C-]#[O+].[C-]#[O+].[C-]#[O+].[CH3][Sn]([c]1ccccc1)[c]1ccccc1.[Co].c1ccc([PH+](c2ccccc2)c2ccccc2)cc1	growth inhibition	99
O=C(c1ccccc1)C1CCCN(CCc2ccccc2)C1 (stereo not given)	growth inhibition	54

q: Need growth inhibition of `O=[N+]([O-])c1ccccc1` , thanks.
a: 3

# credit: PubChem BioAssay (NCI)
